Known TGI of a selection of molecules
Tested on: SNB-19 CNS
assaySummary: NCI tumour cell line growth inhibition, 48 h

# annotated cases, reported TGI shown
O=C1NNC2NC(=O)C3(NN2C1=O)c1ccccc1-c1ccccc13 (stereo not drawn): > 100 µM
COc1nc2c(c(=O)n1C)N=C(c1ccccc1)[C@H](C(CC(=O)c1ccccc1)c1ccccc1)C(c1ccccc1)N2 (stereo partly drawn): > 100 µM

Can you share its TGI? I mean this molecule: CC(=O)OCC1OC(O[C@@H]2C[C@H]3C(C)(C)[C@@H](OC(C)=O)CC[C@]3(C)[C@H]3CC[C@]45C[C@]4(CC[C@H]5[C@@H](C)C[C@@H](O)[C@H](O)C(C)(C)F)[C@@]32C)C(O)C(O)C1O (stereo partly drawn)
3.1 µM

Can you share its TGI? I mean this molecule: C/C=C1\CN2CCc3c([nH]c4ccccc34)C2C=C1CCO (stereo not drawn)
> 340 µM

Can you share its TGI? I mean this molecule: CCOC(=O)c1c(C)n(C)c2c1cc(O)c1[nH]c3c(c12)CCCC3
> 100 µM

Can you share its TGI? I mean this molecule: CC(=O)O[C@H](C[C@H](C(C)C)N(C)C(=O)[C@@H](NC(=O)[C@H]1CCCN1C)C(C)C)c1nc(C(=O)N[C@@H](Cc2ccccc2)C[C@H](C)C(=O)O)c(C)s1
> 16.7 µM

Can you share its TGI? I mean this molecule: CCCCCCCCCNC(=O)/C=C/c1ccc(O)c(O)c1
50.3 µM

Can you share its TGI? I mean this molecule: Cc1nc2[nH]ncn2c(=O)c1CCCl
> 10 µM
